- Test: Coupled enzyme assay (ADH, with and without MSAD): hydratase and hydratase/decarboxylase activity and product profile of Cg10062 and variants
- Type: biochemical
- Protocol conditions: from Cg10062 activity in the presence and absence of MSAD; * from non-enzymatic decarboxylation of malonate semialdehyde
Value kind: Product Ratio (%) acetaldehyde

Input: Quick check: Product Ratio (%) acetaldehyde of Cg10062(E114Q): Previously described Cg10062 variant with E114Q mutation, SEQ ID NO: 22 and 60 (protein, Cg10062(E114Q) from Corynebacterium glutamicum codon-optimized for Escherichia coli) PTYTCWSQRIRISREAKQRIAEAITDAHHELAHAPKYLVQVIFNEVEPDSYFIAAQSASENHIWVQATIRSGRTEKQKEELLLRLTQEIALILGIPNEEVWVYITEIPGSNMTQYGRLLMEPGEEEKWFNSLPEGLRERLTELEGSSE ?
Output: <1* %
